- measurement description: Induction of anti-CD3 antibodies-stimulated human T cell activation at 10 uM assessed fold increase in IFN-gamma secretion measured by ELISA assay; also: reference of the scale not given here
- Format: functional, T cell line
metric: fold change (FC)

# annotated cases, reported fold change (FC) shown
{"smiles structure": "C[C@H](Sc1nncn1C)c1cccc(NC(=O)c2cccc(C(F)(F)F)n2)c1", "fold change (FC)": "<=2"}
{"smiles structure": "Cc1cc(C(=O)Nc2cccc(C3(Cc4nncn4C)COC3)c2)nc(C2CC2)n1", "fold change (FC)": ">4"}
{"smiles structure": "Cc1cc(C(=O)Nc2cccc([C@H](C)Cc3nncn3C)c2)nc(C2CC2)n1", "fold change (FC)": ">4"}
{"smiles structure": "C[C@H](Cc1nncn1C)c1cccc(N2Cc3c(cc(CN4CC(O)C4)cc3C(F)(F)F)C2=O)c1", "fold change (FC)": "<=2"}
{"smiles structure": "C[C@H](Cc1nncn1C)c1cccc(NC(=O)c2nc(C(F)(F)F)c[nH]2)c1", "fold change (FC)": 2.01}

[ask] What does the data say about its fold change (FC)? Entry: C[C@H](c1cc2c(c(C(F)(F)F)c1)CN(c1cccc(C3(Cc4nncn4C)COC3)c1)C2=O)N1CC[C@H](F)C1
[reply] >4

[ask] Moving on to Cc1n[nH]c(C)c1-c1cc2c(c(C(F)(F)F)c1)CN(c1cccc(C3(Cc4nncn4C)COC3)c1)C2=O
[reply] <=2

---

- measurement description: Induction of anti-CD3/CD28 antibodies-stimulated human T cell activation at 0.3 uM assessed fold increase in IL-2 secretion measured by ELISA assay
- Assay type: functional, T cell line
metric: fold change (FC)

{"compound": "COC1CN(Cc2cc3c(c(C(F)(F)F)c2)CN(c2cccc([C@@](C)(F)C(F)(F)c4nncn4C)c2)C3=O)C1", "fold change (FC)": 2.51}
{"compound": "CCOc1cc([C@H](C)Cc2nncn2C)cc(N2Cc3c(cccc3C(F)(F)F)C2=O)n1", "fold change (FC)": 2.51}
{"compound": "Cn1cnnc1CC1(c2cccc(N3Cc4c(cc(CO)cc4C(F)(F)F)C3=O)c2)COC1", "fold change (FC)": 2.51}
{"compound": "COc1cc(C(=O)Nc2cccc(C3(Cc4nncn4C)COC3)c2)nc(C2CC2)n1", "fold change (FC)": 5}
{"compound": "Cc1cc2c(c(C3CC3)n1)CN(c1cccc(C3(C(F)(F)c4nncn4C)COC3)c1)C2=O", "fold change (FC)": 1.01}
{"compound": "C[C@@H]1CN(Cc2cc3c(c(C(F)(F)F)c2)CN(c2cccc(C4(Cc5nncn5C)COC4)c2)C3=O)CCO1", "fold change (FC)": ">=7.5"}
{"compound": "C[C@H](c1cc2c(c(C(F)(F)F)c1)CN(c1cccc(C3([C@@H](F)c4nncn4C)COC3)c1)C2=O)N1CCC2(CC2)C1", "fold change (FC)": ">=7.5"}
{"compound": "Cn1cnnc1[C@@H](F)C1(c2cccc(N3Cc4c(cc(CN5CCC(F)CC5)cc4C(F)(F)F)C3=O)c2)COC1", "fold change (FC)": 5}

[ask] What does the data say about its fold change (FC)? Entry: Cc1ccnn1CC(C)c1cccc(NC(=O)c2cccc(C(F)(F)F)n2)c1 (stereo not drawn)
[reply] <=1

[ask] Moving on to C[C@H](Sc1nncn1C)c1cccc(NC(=O)c2cncc(C(F)(F)F)n2)c1
[reply] <=1

---

- measurement description: Induction of anti-CD3/CD28 antibodies-stimulated human T cell activation at 1 uM assessed fold increase in IL-2 secretion measured by ELISA assay
- Assay type: functional, T cell line
Provide the reported fold change (FC) of each item.
The reply should be a number, written without any unit.

[ask] What does the data say about its fold change (FC)? Entry: Cn1cnnc1C(F)(F)[C@](C)(F)c1cccc(N2Cc3c(cc(CN4CC[C@@H](S(C)(=O)=O)C4)cc3C(F)(F)F)C2=O)c1
[reply] 5

[ask] Moving on to Cc1cc(C(=O)Nc2cccc([C@H](C)Cc3nncs3)c2)nc(C2CC2)n1
[reply] 2.51

[ask] Moving on to C[C@H](Sc1nncn1C)c1cccc(NC(=O)c2cc3cc(OCc4ccn[nH]4)ccc3cn2)c1
[reply] 1.01

[ask] Moving on to Cn1cnnc1CC1(c2cccc(N3Cc4c(cc(N5CCOC5=O)cc4C(F)(F)F)C3=O)c2)COC1
[reply] 2.51

---

- measurement description: Induction of activation of human CD56+ CD3- NK cells co-cultured with human K562 cells in 1:1 ratio and assessed as increase in IFN-gamma secretion at 10 uM measured by ELISA assay
- Assay type: functional, Natural killer cell
metric: fold change (FC)

# annotated cases, reported fold change (FC) shown
{"molecule": "Cc1cc(C(=O)Nc2cccc([C@@H](C)Cc3nncn3C)c2)nc(C2CC2)n1", "data value": 2.01}
{"molecule": "Cn1cnnc1[C@@H]1C[C@@H]1c1cccc(N2Cc3c(cccc3C(F)(F)F)C2=O)c1", "data value": 2.01}
{"molecule": "Cn1cnnc1CC1(c2cccc(NC(=O)c3cc(CN4CCC5(CC5)C4)cc(C4CC4)n3)c2)COC1", "data value": ">=5"}
{"molecule": "C[C@H](Cc1nncn1C)c1cccc(N2Cc3c(cc(CN4CC[C@](C)(O)C4)cc3C(F)(F)F)C2=O)c1", "data value": ">=5"}
{"molecule": "Cn1cnnc1C(F)(F)[C@](C)(F)c1cccc(N2Cc3c(cc(CN4CC[C@@H](C#N)C4)cc3C(F)(F)F)C2=O)c1", "data value": ">=5"}

Okay, next one:
[ask] What does the data say about its fold change (FC)? Entry: Cn1cnnc1C(F)(F)C(C)(F)c1cccc(N2Cc3c(cc(CN4CC[C@@H](F)C4)cc3C(F)(F)F)C2=O)c1 (single isomer, unassigned)
[reply] >=5

---

Provide the reported fold change (FC) of each item.
- measurement description: Induction of anti-CD3 antibodies-stimulated human T cell activation at 10 uM assessed fold increase in TNF-alpha secretion measured by ELISA assay; also: reference of the scale not given here
- Assay type: functional, T cell line
The reply should be a number, written without any unit.

[ask] What does the data say about its fold change (FC)? Entry: COC1CN(Cc2cc3c(c(C(F)(F)F)c2)CN(c2cccc([C@@](C)(F)C(F)(F)c4nncn4C)c2)C3=O)C1
[reply] 1.51

[ask] Moving on to C[C@H](Sc1nncn1C)c1cccc(NC(=O)c2cc(C(=O)N3CC[C@H](O)C3)ccn2)c1
[reply] 2.01

[ask] Moving on to Cn1cnnc1[C@@H]1C[C@@H]1c1cccc(N2Cc3c(ccnc3C(F)(F)F)C2=O)c1
[reply] 1.51

[ask] Moving on to C[C@H](Sc1nncn1C)c1cccc(NC(=O)c2cccc(C(F)(F)F)n2)c1
[reply] 1.51

[ask] Moving on to Cn1cnnc1CC1(c2cccc(NC(=O)c3nc4c(C(F)(F)F)cccc4[nH]3)c2)COC1
[reply] 1.51

[ask] Moving on to C[C@H](Cc1nncn1C)c1cccc(N2Cc3c(cc(CN4CC(C)(O)C4)cc3C(F)(F)F)C2=O)c1
[reply] 1.51

[ask] Moving on to C[C@H](c1cc2c(c(C(F)(F)F)c1)CN(c1cccc(C3(Cc4nncn4C)COC3)c1)C2=O)N1CC[C@H](F)C1
[reply] 1.51

---

Provide the reported fold change (FC) of each item.
- measurement description: Induction of anti-CD3/CD28 antibodies-stimulated human T cell activation at 0.3 uM assessed fold increase in IL-2 secretion measured by ELISA assay
- Format: functional, T cell line
The reply should be a number, written without any unit.

[ask] What does the data say about its fold change (FC)? Entry: Cn1cnnc1CC1(c2cccc(N3Cc4c(cc(CN5Cc6ccc(F)cc6C5)cc4C(F)(F)F)C3=O)c2)COC1
[reply] 5

[ask] Moving on to C[C@H](Cc1nncn1C)c1cc(C2CC2)nc(N2Cc3c(cccc3C(F)(F)F)C2=O)c1
[reply] 1.01

[ask] Moving on to Cc1conc1C[C@@H](C)c1cccc(N2Cc3c(cc(C(=O)N4CC[C@H](O)C4)cc3C(F)(F)F)C2=O)c1
[reply] 2.51

[ask] Moving on to Cn1cnnc1CC1(c2cccc(N3Cc4c(cc(CN5CC[C@H](C#N)C5)cc4C(F)(F)F)C3=O)c2)COC1
[reply] 5

[ask] Moving on to CC(Cc1nncn1C)c1cc(C2CCC2)cc(N2Cc3c(cccc3C(F)(F)F)C2=O)c1 (stereo not drawn)
[reply] 1.01

[ask] Moving on to Cn1cnnc1CC1(c2cccc(NC(=O)c3cc(N4CC(C(F)F)C4)nc(C4CC4)n3)c2)COC1
[reply] 2.51

[ask] Moving on to Cn1cnnc1C[C@]1(c2cccc(N3Cc4c(cccc4C(F)(F)F)C3=O)c2)C[C@H](CO)C1
[reply] 1.01

---

- measurement description: Induction of anti-CD3/CD28 antibodies-stimulated human CD8+ T cell activation at 1.11 uM assessed fold increase in CD69 expression measured by flow cytometry analysis
- Assay type: functional, T cell line
metric: fold change (FC)
The reply should be a number, written without any unit.

[ask] What does the data say about its fold change (FC)? Entry: COC1CN(Cc2cc3c(c(C(F)(F)F)c2)CN(c2cccc([C@@](C)(F)C(F)(F)c4nncn4C)c2)C3=O)C1
[reply] 1.201

[ask] Moving on to C[C@H](Cc1nncn1C)c1cccc(N2Cc3c(cc(CN4CC[C@H](F)C4)cc3C(F)(F)F)C2=O)c1
[reply] 1.201

[ask] Moving on to Cn1cnnc1C(F)(F)[C@](C)(F)c1cccc(N2Cc3c(cc(CN4CC[C@@H](C#N)C4)cc3C(F)(F)F)C2=O)c1
[reply] 1.201

[ask] Moving on to C[C@H](Cc1nncn1C)c1cccc(NC(=O)c2n[nH]c3c2CCC3)c1
[reply] 1.201

[ask] Moving on to C[C@H](Cc1nncn1C)c1cccc(N2Cc3c(cc(CN4CC[C@](C)(O)C4)cc3C(F)(F)F)C2=O)c1
[reply] 1.201

Source of measurements: ChEMBL document CHEMBL5050844
